ENDPOINT_LABEL: melting point

O=C(O)c1ccc(S(=O)(=O)CCO)cc1	189 to 191 °C
Nc1nc(-c2ccccc2C(F)(F)F)cs1	115 to 117 °C
NCc1ccc(C(N)=O)cc1	141 to 143 °C
Cc1nn(C(C)C)c(C)c1N	58 to 60 °C
O=[N+]([O-])c1cc(S(=O)(=O)Cl)ccc1Br	53 to 55 °C
O=C1Nc2cc(Br)ccc2C1=O	259 to 261 °C

Report melting point for every entry below.
1. CCC(=O)Cc1ccc(Cl)cc1Cl
2. N#Cc1ccc(NC(=O)CCCl)cc1Cl
3. COc1ccc(CN2CCN(C(=O)CCNC(=O)c3ccc(C(C)(C)C)cc3)CC2)cc1
4. CC(C)(Sc1ccc(Br)cc1)C(=O)O

["37 to 39 °C", "156 to 158 °C", "102 to 104 °C", "109 to 111 °C"]
